target: EGFR (Homo sapiens, UniProt P00533); construct: A431 cell lysate (SUGEN, Inc.); host or cells: A431; experiment: cell EGF assay; type: cell-based
Sequence (P00533 25-1210): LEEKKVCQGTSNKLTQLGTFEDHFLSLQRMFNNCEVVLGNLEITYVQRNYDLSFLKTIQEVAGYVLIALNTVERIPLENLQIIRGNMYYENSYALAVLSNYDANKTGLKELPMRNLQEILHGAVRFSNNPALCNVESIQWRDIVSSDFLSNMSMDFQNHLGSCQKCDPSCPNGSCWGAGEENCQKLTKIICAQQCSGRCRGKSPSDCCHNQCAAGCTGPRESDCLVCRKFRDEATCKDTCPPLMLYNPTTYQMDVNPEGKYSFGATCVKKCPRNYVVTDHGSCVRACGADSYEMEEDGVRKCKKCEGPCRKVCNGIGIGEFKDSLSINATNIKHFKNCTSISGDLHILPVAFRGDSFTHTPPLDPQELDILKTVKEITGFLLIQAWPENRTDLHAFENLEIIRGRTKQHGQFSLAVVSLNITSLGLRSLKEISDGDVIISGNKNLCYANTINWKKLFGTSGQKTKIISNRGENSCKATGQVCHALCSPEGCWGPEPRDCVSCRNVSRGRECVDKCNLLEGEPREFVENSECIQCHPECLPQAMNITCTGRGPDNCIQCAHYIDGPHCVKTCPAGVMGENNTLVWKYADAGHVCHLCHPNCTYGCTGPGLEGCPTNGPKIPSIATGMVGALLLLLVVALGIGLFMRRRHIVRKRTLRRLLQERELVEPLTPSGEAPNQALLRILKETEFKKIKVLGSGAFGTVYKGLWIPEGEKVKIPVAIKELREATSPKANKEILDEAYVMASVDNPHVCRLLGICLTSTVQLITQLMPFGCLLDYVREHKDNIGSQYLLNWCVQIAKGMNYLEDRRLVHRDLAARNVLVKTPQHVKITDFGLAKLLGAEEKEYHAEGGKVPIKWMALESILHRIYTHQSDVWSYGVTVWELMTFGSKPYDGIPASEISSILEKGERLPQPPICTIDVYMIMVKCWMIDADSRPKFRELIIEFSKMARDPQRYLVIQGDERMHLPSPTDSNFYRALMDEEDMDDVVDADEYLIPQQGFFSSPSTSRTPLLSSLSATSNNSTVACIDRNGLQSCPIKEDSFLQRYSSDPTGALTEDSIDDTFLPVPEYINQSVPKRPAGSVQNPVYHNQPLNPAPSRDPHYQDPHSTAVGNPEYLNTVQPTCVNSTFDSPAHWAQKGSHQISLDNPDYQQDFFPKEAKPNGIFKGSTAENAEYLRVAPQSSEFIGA
Give measured pIC50 for each item. Keep answers brief.
Numbers only, as −log10 of the molar value.

Recorded pIC50, per entry:
[
  {
    "molecularString": "CC(C)c1[nH]c(/C=C2\\C(=O)Nc3ccc(Br)cc32)c(C(C)C)c1C(=O)NCCCN1CCCC1",
    "recordedMetric": "pIC50",
    "measuredNumber": 4.40
  },
  {
    "molecularString": "COc1ccccc1-c1ccc2c(c1)NC(=O)/C2=C\\c1[nH]c(C)c(C(=O)NCCN2CCCC2)c1-c1ccccc1",
    "recordedMetric": "pIC50",
    "measuredNumber": 4.43
  },
  {
    "molecularString": "CCN(CC)CCCNC(=O)c1c(C)[nH]c(/C=C2\\C(=O)Nc3ccc(Br)cc32)c1-c1ccccc1",
    "recordedMetric": "pIC50",
    "measuredNumber": 4.38
  }
]

Count: 3. Required value per item: pIC50.
1. COc1ccccc1-c1ccc2c(c1)NC(=O)/C2=C\c1[nH]c(C)c(C(=O)NCCN(C)C)c1C
2. Cc1[nH]c(/C=C2\C(=O)Nc3cc(-c4cccnc4)ccc32)c(C)c1C(=O)NCCCN(C)C
3. CCN(CC)CCCNC(=O)c1c(C)[nH]c(/C=C2\C(=O)Nc3cc(-c4ccccc4)ccc32)c1C

1: 5.01; 2: 4.13; 3: 4.63
